- SYSTEM: T1, rhesus serum albumin (rhesus, UniProt Q28522 17-600)
- T1 construct: also called RhSA
- T1 sequence (Q28522 17-600 limits assumed): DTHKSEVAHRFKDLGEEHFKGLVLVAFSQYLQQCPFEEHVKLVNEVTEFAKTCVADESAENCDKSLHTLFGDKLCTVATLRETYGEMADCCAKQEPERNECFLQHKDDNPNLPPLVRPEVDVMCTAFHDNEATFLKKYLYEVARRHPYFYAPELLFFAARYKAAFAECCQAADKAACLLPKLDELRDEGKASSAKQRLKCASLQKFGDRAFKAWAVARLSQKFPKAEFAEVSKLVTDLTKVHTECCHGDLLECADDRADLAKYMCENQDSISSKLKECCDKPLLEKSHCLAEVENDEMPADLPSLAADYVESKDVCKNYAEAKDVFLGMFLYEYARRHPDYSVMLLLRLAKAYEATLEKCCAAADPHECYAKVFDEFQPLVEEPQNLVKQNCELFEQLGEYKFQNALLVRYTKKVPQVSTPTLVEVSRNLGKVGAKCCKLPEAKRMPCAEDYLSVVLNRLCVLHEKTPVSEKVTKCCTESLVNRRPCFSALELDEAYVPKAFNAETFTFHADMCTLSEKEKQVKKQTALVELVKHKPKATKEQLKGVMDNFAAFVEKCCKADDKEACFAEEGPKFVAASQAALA
- ASSAY NOTES: SPR (Biacore), albumin captured on chip, SABA in flow
MEASURED ATTRIBUTE: koff (s⁻¹)

BINDER	NUMERIC RESULT
SABA4.1 (designed binder, Carries a scaffold mutation; SABA5 is the scaffold-perfect version) MGVSDVPRDLEMVAATPTSLLISWEDDSYYSRYYRITYGETGGNSPVQEFTVPSDLYTATISGLKPGVDYTITVYAVTYDVTDLIMHEPISINYRTEIDKPSQHHHHHH	0.00383

a = SABA1.1 (designed binder, also called clone 1318H04) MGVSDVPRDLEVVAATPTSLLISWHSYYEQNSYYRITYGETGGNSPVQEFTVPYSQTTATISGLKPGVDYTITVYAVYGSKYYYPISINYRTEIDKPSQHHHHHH
b = SABA2.1 (designed binder) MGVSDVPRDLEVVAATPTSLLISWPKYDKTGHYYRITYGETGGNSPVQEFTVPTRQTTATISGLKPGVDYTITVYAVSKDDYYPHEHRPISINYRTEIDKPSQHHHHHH
c = SABA3.1 (designed binder, also called clone 1245H07) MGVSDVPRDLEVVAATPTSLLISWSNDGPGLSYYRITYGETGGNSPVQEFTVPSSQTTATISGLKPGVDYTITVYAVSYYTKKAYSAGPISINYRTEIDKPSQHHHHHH
[ask] Returns the items ordered by koff, from maximum to minimum. Rank the items, then write their labels in that order.
[reply] c, a, b
(c: 0.0337 s⁻¹, a: 0.00545 s⁻¹, b: 0.000442 s⁻¹)

These measurements were taken from patent US20120094909A1.
